The measurements presented in this section are drawn from paper PMC4786784.

Provide the reported pKd of each item.
MEASURED TARGET: U2AF65 1,2L (human, UniProt P26368 141-342)
Sequence (P26368 141-342, one chain of several): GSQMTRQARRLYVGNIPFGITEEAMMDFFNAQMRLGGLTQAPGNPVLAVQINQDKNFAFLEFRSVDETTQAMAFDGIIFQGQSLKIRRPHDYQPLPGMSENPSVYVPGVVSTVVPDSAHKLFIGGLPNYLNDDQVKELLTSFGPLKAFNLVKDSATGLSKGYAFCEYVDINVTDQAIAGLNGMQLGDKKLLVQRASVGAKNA
ASSAY TEXT: fluorescence anisotropy; Anisotropy: 100 mM NaCl, 15 mM HEPES pH 6.8, 0.2 mM TCEP, 0.1 U/ul Superase-In, 30 nM RNA, 23 C; smFRET: 50 mM HEPES pH 7.4, 100 mM NaCl, room temperature
Worth noting: pKd values are minus log10 of concentrations stated in mol/L.

Prompt: Give reported pKd value for CCCCCCCUUUUCC (ssRNA) [3'-4rU]
Completion: 6.38

Prompt: Give reported pKd value for CCUUUUCCCCCCC (ssRNA) [5'-4rU]
Completion: 7.51
